I'd be grateful if you could share measured pIC50 for these entries.
System: Lp(a) production in HepG2^K17 cells
Test: LPA3 screen: inhibition of Lp(a) production in transfected HepG2 cells, Lp(a) in media by ELISA
Format: cell-based
Conditions: Homo sapiens, 8 hours, 0.3 to 50 μM compound, Lp(a) normalized for total protein, read-out: Lp A3 IC50
Keep in mind that pIC50 stands for -log10 of concentration in molar terms.

The compound COc1ccc(CN(C(=O)c2ccccc2)c2ccccc2)cc1 [Example 60, N-(4-Methoxy-benzyl)-N-phenyl-benzamide] on Lp(a) production in HepG2^K17 cells: pIC50 was 4.54

The compound COc1ccc(N(Cc2ccccc2-c2ccccc2)C(=O)c2cccc3c2OCO3)cn1 on Lp(a) production in HepG2^K17 cells: pIC50 was 4.93

The compound O=C(c1sc2ccccc2c1Cl)N(Cc1ccccc1-c1ccccc1)c1cccnc1 on Lp(a) production in HepG2^K17 cells: pIC50 was 4.63

The compound COc1ccc(C(=O)N(Cc2ccc3ccccc3c2)c2ccccc2)cc1OC on Lp(a) production in HepG2^K17 cells: pIC50 was 4.76

The compound COc1cccc(CN(C(=O)c2ccc(OC)c(OC)c2)c2ccccc2)c1 on Lp(a) production in HepG2^K17 cells: pIC50 was 4.28

The compound COc1ccccc1N(Cc1ccccc1-c1ccccc1)C(=O)c1ccccc1 on Lp(a) production in HepG2^K17 cells: pIC50 was 4.78

The compound O=C(c1ccccc1Br)N(Cc1ccccc1-c1ccccc1)c1cccnc1 on Lp(a) production in HepG2^K17 cells: pIC50 was 4.57

The compound COc1ccccc1C(=O)N(Cc1ccccc1-c1ccccc1)c1ccncc1 on Lp(a) production in HepG2^K17 cells: pIC50 was 5.32

The compound COc1ccc(N(Cc2ccccc2-c2ccccc2)C(=O)c2ccc(OC)cc2OC)cc1 on Lp(a) production in HepG2^K17 cells: pIC50 was 5.03

The compound CCOc1ccc(C(=O)N(Cc2ccccc2-c2ccccc2)c2ccncc2)cc1 on Lp(a) production in HepG2^K17 cells: pIC50 was 5.48

The compound COc1ccc(CN(C(=O)c2ccc(OC)c(OC)c2)c2ccccc2)cc1 on Lp(a) production in HepG2^K17 cells: pIC50 was 4.29

The compound COc1ccc(N(Cc2ccccc2-c2ccccc2)C(=O)c2ccccc2[S+]([O-])C(C)C)cc1OC (centres unmarked) on Lp(a) production in HepG2^K17 cells: pIC50 was 5.15

The compound O=C(c1ccccc1OCc1ccccc1)N(Cc1ccccc1-c1ccccc1)c1ccccn1 on Lp(a) production in HepG2^K17 cells: pIC50 was 4.60

The compound CCCCOc1ccc(N(Cc2ccccc2-c2ccccc2)C(=O)CN(CC)CC)cn1 on Lp(a) production in HepG2^K17 cells: pIC50 was 4.36

The compound CCN(CC)CCCc1ccc(N(Cc2ccccc2-c2ccccc2)C(=O)c2ccccc2)cc1 on Lp(a) production in HepG2^K17 cells: pIC50 was 4.94

The compound O=C(c1cc2ccccc2s1)N(Cc1ccccc1-c1ccccc1)c1cccnc1 on Lp(a) production in HepG2^K17 cells: pIC50 was 5.03

The compound O=C(c1ccccc1OCc1ccccc1)N(Cc1ccccc1-c1ccccc1)c1ccncc1 on Lp(a) production in HepG2^K17 cells: pIC50 was 5.64
